Target: GST-SBP-SLBP (stem-loop binding protein) (Homo sapiens, UniProt Q14493 1-270)
Assay: targeted RNA Bind-n-Seq; RBNS binding buffer: 25 mM Tris pH 7.5, 150 mM KCl, 3 mM MgCl2, 0.1% Tween, 0.5 mg/mL BSA, 1 mM DTT; 27 nM protein, 750 pM RNA pool; temperature not stated; high values mean tight binding
Details: protein: recombinant; tags: N-terminal GST and SBP (pGEX6P1-SBP); structured_RNA
In all, about 11,000 sequences were measured (“log2 fold change”: median about 0.00022, highest 2% from about 0.34 on). This is one part of the list.
We label by threshold. Values of binding signal strictly beneath 0.4 log2 fold change are 1 (yes). Values of 0.4 log2 fold change and up are 0 (no).

// known answers, use as guide
| BIOSEQUENCE | LABEL |
| --- | --- |
| GGUCACGUCUCAAUCAACUCUCCAGAGGGGGGGAAAACCCCUUUACCCUCAACAUCAACAGCUCGCAGUCAAG | 1 (yes) |
| GGUCACGUCUCAAUCAACUCAAUCUCAGGAGUUUUCUCCUGUAUACUCAACAGCUCGCAGUCAAG | 0 (no) |
| GGUCACGUCUCAAUCAACUCCAAAGAGGGGGGGAAAACCCCUUUGCCCUCAAUAUCAACAGCUCGCAGUCAAG | 1 (yes) |
| GGUCACGUCUCAAUCAACUCCAUAGAGGGGGGGAAAACCCCUUUACCCUCACAUUCAACAGCUCGCAGUCAAG | 1 (yes) |
| GGUCACGUCUCAAUCAACUCUUUAGAGGGGGGGAAAACCCCUUUGCCCUCGAAUUCAACAGCUCGCAGUCAAG | 1 (yes) |

Continue with the next sequence.
Incoming: In the record for GGUCACGUCUCAAUCAACUCUUUCUCAGGAGUUUACUCCUGUAUAUUCAACAGCUCGCAGUCAAG , is binding signal less than 0.4 log2 fold change?
Outgoing: 1 (yes)

----------
Molecular target: GST-SBP-SLBP (stem-loop binding protein) (Homo sapiens, UniProt Q14493 1-270)
Experiment: targeted RNA Bind-n-Seq; RBNS binding buffer: 25 mM Tris pH 7.5, 150 mM KCl, 3 mM MgCl2, 0.1% Tween, 0.5 mg/mL BSA, 1 mM DTT; 27 nM protein, 750 pM RNA pool; temperature not stated; high values mean tight binding
Conditions: protein: recombinant; tags: N-terminal GST and SBP (pGEX6P1-SBP); structured_RNA
The full ranking holds about 11,000 sequences; the median of “log2 fold change” is about 0.00022, and the highest 2% start at about 0.34. Some of the results follow.
Provide the recorded binding signal for the entries that follow.
Answers are plain numbers, in log2 fold change.

For each entry beneath this line, provide reported binding signal.
1. GGUCACGUCUCAAUCAACUCCUCAGAGGGGGGGAAAACCCCUUUACCCUCGUCCUCAACAGCUCGCAGUCAAG
2. GGUCACGUCUCAAUCAACUCCUCAGAGGGGGGGAAAACCCCUUUACCCUCAAUAUCAACAGCUCGCAGUCAAG
3. GGUCACGUCUCAAUCAACUCUUCCCCCAGGGAAACCCCUGGCUAAUUCAACAGCUCGCAGUCAAG
4. GGUCACGUCUCAAUCAACUCUUCUCCCAGGGAAAUCCCUGGUAAACUCAACAGCUCGCAGUCAAG
5. GGUCACGUCUCAAUCAACUCUCUAGAGGGGGGGAAAACCCCUUUGCCCUCCGUUUCAACAGCUCGCAGUCAAG
6. GGUCACGUCUCAAUCAACUCUUCUUCCAGGGAAAUCCCUGGUAAUUUCAACAGCUCGCAGUCAAG
7. GGUCACGUCUCAAUCAACUCAUCGCCCAGGGAAAGCCCUGGUUAAUUCAACAGCUCGCAGUCAAG
8. GGUCACGUCUCAAUCAACUCUUCGUCCAGGGAAAACCCUGGUUUUCUCAACAGCUCGCAGUCAAG

Outgoing:
1. 0.382
2. 0.394
3. 0.313
4. 0.359
5. 0.354
6. 0.413
7. 0.329
8. 0.335

Each sequence below has a recorded value; state its binding signal.
1. GGUCACGUCUCAAUCAACUCUUCUCCCAGGGAAAUCCCUGGUAUACUCAACAGCUCGCAGUCAAG
2. GGUCACGUCUCAAUCAACUCAUCCCCCAGGGAAAUCCCUGGUUAAUUCAACAGCUCGCAGUCAAG
3. GGUCACGUCUCAAUCAACUCUUCGUCCAGGGAAACCCCUGGUUUUCUCAACAGCUCGCAGUCAAG
4. GGUCACGUCUCAAUCAACUCAAUCCCCAGGGAAAUCCCUGGUAAAUUCAACAGCUCGCAGUCAAG
5. GGUCACGUCUCAAUCAACUCAACAGAGGGGGGGAAAACCCCUUUACCCUCAAUAUCAACAGCUCGCAGUCAAG
6. GGUCACGUCUCAAUCAACUCAAUAGAGGGGGGGAAAACCCCUUUACCCUCAAACUCAACAGCUCGCAGUCAAG
7. GGUCACGUCUCAAUCAACUCUUCCUCCAGGGAAAACCCUGGUAAACUCAACAGCUCGCAGUCAAG

Outgoing:
0.329
0.368
0.36
0.453
0.362
0.319
0.339

For each entry beneath this line, provide reported binding signal.
1. GGUCACGUCUCAAUCAACUCAUUCGAGGGGGGGAAAACCCCUUUGCCCUCAUCAUCAACAGCUCGCAGUCAAG
2. GGUCACGUCUCAAUCAACUCUUCGCCCAGGGAAACCCCUGGUAAUCUCAACAGCUCGCAGUCAAG

Outgoing:
[0.363, 0.384]
